Test system: SW-620 colon
Assay: NCI-60 one-dose screen, 48 h (100 = growth as untreated, 0 = no growth, -100 = all killed)
Details: 10 µM unless noted
Procedure: Growth inhibition of the SW-620 human tumor cell line is measured as a screen for anti-cancer activity. Cells are grown in 96 well plates and exposed to the test compound for 48 hours. Compounds are tested at a single concentration, which is 10^-5 M for most compounds. The reported endpoint is percent growth (GI% or GIPRCNT), where numbers from 0 - 100% represent growth inhibition, and numbers from -100% - 0 represent cell death. For example, a value of 40 represents 60% growth inhibition. […]
Compounds without any hit were thinned out: in the full panel of roughly 83,000, 20% have a hit.
REPORTED ENDPOINT: growth (%)
Record the value in %, omitting the unit from your answer.

Report value only: growth, SW-620 colon, Nc1n[nH]c(-c2cc(Cl)ccc2O)c1-c1ccccc1
102

Print SW-620 colon growth for O=C(COc1ccc(/C=C2\Oc3ccccc3C2=O)cc1)Nc1nc2c(s1)CCCC2 .
65.5

Specify the recorded growth for COc1cc(/C=C/C(=O)c2ccc(Nc3nc(Nc4ccc(F)cc4)nc(Nc4ccc(Cl)cc4)n3)cc2)cc(OC)c1OC , system: SW-620 colon.
35.3

// output growth; input COC1=C(OC)C(=O)C(OC)=C(OC)C1=O ; system SW-620 colon
101

Under SW-620 colon, report growth for C[n+]1cccc(CC(=O)NO)c1
105

====

Tested on: MALME-3M melanoma
Experiment: NCI-60 one-dose screen, 48 h (100 = growth as untreated, 0 = no growth, -100 = all killed)
Conditions: 10 µM unless noted
The panel holds about 83,000 compounds, 20% with a hit somewhere; the sample as a whole holds those more often.
Mark yes only for growth values smaller than 50%; exact matches and larger values are no.

Please determine if CN(C)CCNc1nc2ccccc2c2c1c1c(n2Cc2ccccc2)-c2ccccc2C1=O is below 50% in terms of growth.
yes

Determine if COc1cc(/C=N/n2c(CN3CCOCC3)nc3ccccc3c2=O)cc(OC)c1OC shows growth strictly lower than 50%.
no

Field: below-cutoff. Rule: recorded growth strictly less than 50%. Subject: COc1ccc2c(c1)C(=O)/C(=C/c1ccc(OCC(=O)Nc3nccs3)cc1)O2
yes

Strictly below 50% in growth? CC1=NOC(=O)/C1=C\c1ccc(O)cc1
no

Identify whether the compound N#Cc1c(-c2ccccn2)[nH]c(=S)[nH]c1=O records growth below 50%.
no

For this compound, is growth lower than 50%? C=CCn1c(C)nc2cc(Nc3nc(N4CCCC4)nc4ccccc34)ccc21
no

I wonder whether COC1=C(OC)C(=O)C(OC)=C(OC)C1=O has growth below 50%. Can you tell?
no

Bench note: check whether CN(C)CCC=C1c2ccccc2C(C)(C)c2ccccc21 shows growth below 50%
no

Strictly below 50%: is that where growth of C[C@]12CC[C@@H]3c4cc(OC(F)F)c(O)cc4CC[C@H]3[C@@H]1CC[C@@H]2OS(N)(=O)=O sits?
yes

Strictly below 50%: is that where growth of COC(=O)[C@]12CC[C@@H](C)[C@H](C)[C@@H]1C1=CC[C@@H]3[C@@]4(C)C(C=O)=C[C@@](C)(COC(C)=O)C4=CC[C@@]3(C)[C@]1(C)CC2 sits?
yes

Does this compound meet the criterion growth < 50%? Cc1ccc(C(=O)C2=C(O)C(=O)N(Cc3cccnc3)C2c2ccccc2F)o1 (configuration not stated)
no

Threshold test, growth < 50%: CN1CCN(CCCOc2ccc3nc(Nc4ccc(F)c(F)c4)ccc3c2)CC1
yes

Hi there! Is growth for COc1ccc(-c2nc(SC(C)C)nc(NNC(N)=S)c2C#N)cc1 below 50%, do you know?
no

Please determine if Fc1c[c-]c(-c2ccccn2)c(F)c1.[CH3-].[Pt+2].c1ccc(P(C[PH+](c2ccccc2)c2ccccc2)c2ccccc2)cc1 is below 50% in terms of growth.
yes

Determine whether this compound shows growth lower than 50% (ties excluded): Cc1c(C(=O)OC(=NC2CCCCC2)NC2CCCCC2)sc2c1c(=O)nc1c(C#N)n[nH]n12
no

Report whether reported growth is lower than 50% (strictly) for O=C(NCCCNc1cc(-c2cn(-c3ccccc3)nc2-c2cccc(O)c2)ccn1)c1ccccc1
yes

Say whether its growth is strictly beneath 50%. Entry: O=C1NC(=Nc2ccc(Cl)cc2)S/C1=C\c1cn(-c2ccccc2)nc1-c1ccccc1
no

Find out if reported growth for CC1(C)CC(=O)CC2(C1)N=C(N)Nc1nc3ccccc3n12 (configuration not stated) is less than 50%
no

Is it true that growth reported for COCCc1ccc(OCC(O)CNC(C)C)cc1 (configuration not stated) is less than 50%?
no

Input COc1ccc(Nc2nnc(SCc3ccccc3F)s2)cc1 ; condition: growth strictly below 50%. Does it hold?
no

Lab note: confirm whether the reported growth for this compound is below 50%, equality not counting. compound: CCCCCCCCCOc1c(OC)cc(C2CC(=O)Nc3c2c(C)nn3-c2nc3ccccc3[nH]2)cc1OC (configuration not stated)
yes

Lab note: growth threshold 50%. Does this compound come in strictly under it? COc1ccc(N=Nc2ccc(O)c(=O)cc2)cc1
yes

Values compiled from PubChem BioAssay (NCI).
